Exercise: state measured Total Binding at 37° C. for each of the molecules provided.
Molecular target: T1, MSR1 on differentiated THP-1 cells (Homo sapiens, UniProt P21757)
T1 construct: endogenous in cells; host or cells: THP-1 cells differentiated with PMA
T1 sequence (P21757 1-451): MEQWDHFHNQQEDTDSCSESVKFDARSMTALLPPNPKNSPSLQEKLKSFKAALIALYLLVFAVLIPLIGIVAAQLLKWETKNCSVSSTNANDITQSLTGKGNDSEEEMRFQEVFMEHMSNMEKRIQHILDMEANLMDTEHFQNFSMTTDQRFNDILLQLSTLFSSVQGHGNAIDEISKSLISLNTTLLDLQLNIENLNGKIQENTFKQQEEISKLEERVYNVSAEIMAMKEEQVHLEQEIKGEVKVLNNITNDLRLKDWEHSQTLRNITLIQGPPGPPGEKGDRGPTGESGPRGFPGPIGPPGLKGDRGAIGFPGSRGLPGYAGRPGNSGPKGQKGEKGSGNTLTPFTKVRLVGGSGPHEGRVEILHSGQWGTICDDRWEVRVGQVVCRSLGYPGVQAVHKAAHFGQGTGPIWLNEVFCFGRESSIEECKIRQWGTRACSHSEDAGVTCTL
Assay: Binding and internalization of cell-surface expressed MSR1 in differentiated THP-1 cells
Assay type: cell-based
Settings: 10 μg/mL antibody, 37° C.
# respond with the number and nothing more

Would you mind telling me what Total Binding at 37° C. value was observed for H1H21227N-N297Q: "modified versions of 21227N (H1H21227N-N297Q and H1H21227N-N297D)"; anti-MSR1 antibody "with a N297Q single point mutation" (antibody, V domains shown) VH: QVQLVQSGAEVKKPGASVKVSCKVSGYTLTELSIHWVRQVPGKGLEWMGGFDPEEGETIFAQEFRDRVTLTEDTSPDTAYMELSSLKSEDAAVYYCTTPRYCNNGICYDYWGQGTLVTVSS VL: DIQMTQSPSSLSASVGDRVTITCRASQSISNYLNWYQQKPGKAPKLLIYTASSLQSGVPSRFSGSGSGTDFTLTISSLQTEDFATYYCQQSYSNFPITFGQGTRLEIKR ?
4110990

# Total Binding at 37° C. lookup, item H1H27731P-N297Q: one of "Twelve anti-MSR1 antibodies"; "made with an N297Q single point mutation in human Fcγ portion" (antibody, V domains shown) VH: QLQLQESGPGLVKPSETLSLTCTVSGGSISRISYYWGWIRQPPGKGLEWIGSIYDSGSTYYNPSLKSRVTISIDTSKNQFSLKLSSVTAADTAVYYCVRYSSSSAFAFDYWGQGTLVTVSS VL: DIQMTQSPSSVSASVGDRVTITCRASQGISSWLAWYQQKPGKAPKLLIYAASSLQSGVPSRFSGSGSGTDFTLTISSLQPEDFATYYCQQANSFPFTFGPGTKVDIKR
1802404

Which Total Binding at 37° C. value is on record for H1H27754P-N297Q: one of "Twelve anti-MSR1 antibodies"; "made with an N297Q single point mutation in human Fcγ portion" (antibody, V domains shown) VH: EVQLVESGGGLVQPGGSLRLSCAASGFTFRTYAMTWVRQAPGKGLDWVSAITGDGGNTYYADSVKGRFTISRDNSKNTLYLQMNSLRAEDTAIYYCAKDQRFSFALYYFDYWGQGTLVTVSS VL: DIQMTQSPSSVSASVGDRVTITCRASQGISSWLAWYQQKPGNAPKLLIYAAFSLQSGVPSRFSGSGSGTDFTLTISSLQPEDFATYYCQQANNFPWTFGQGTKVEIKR ?
7161570

Please give the measured Total Binding at 37° C. for this molecule: H1H27734P-N297Q: one of "Twelve anti-MSR1 antibodies"; "made with an N297Q single point mutation in human Fcγ portion" (antibody, V domains shown) VH: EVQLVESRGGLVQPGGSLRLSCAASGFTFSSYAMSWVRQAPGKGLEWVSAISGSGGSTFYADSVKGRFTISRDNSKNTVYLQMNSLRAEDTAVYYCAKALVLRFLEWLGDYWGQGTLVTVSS VL: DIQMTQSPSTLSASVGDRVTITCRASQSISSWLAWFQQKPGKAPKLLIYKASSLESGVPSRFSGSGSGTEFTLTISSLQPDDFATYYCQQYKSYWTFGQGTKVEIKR
1151348
